What difference in excitability was measured for each of the following?
- Test system: Danio rerio larvae (5 dpf)
- testSummary: difference in excitability vs DMSO (percentage points); higher = more excitable than DMSO
- measurementContext: 10 µM; exposure time 6 h
Where a name gives a salt, the structure may show the parent alone.
Give bare numbers.

Recorded difference in excitability, per entry:
Cc1cnc(C(=O)NCCc2ccc(S(=O)(=O)NC(=O)NC3CCCCC3)cc2)cn1 [Glipizide]
0.585
N=C(N)NCCCC[C@@H]1NC(=O)CCSSC[C@@H](C(N)=O)NC(=O)[C@@H]2CCCN2C(=O)[C@H](Cc2c[nH]c3ccccc23)NC(=O)[C@H](CC(=O)O)NC(=O)CNC1=O [Eptifibatide]
10.9
O=C(O)CCCc1ccccc1 [Sodium 4-Phenylbutyrate]
-1.36
CCCN(CCC)CCc1cccc2c1CC(=O)N2 [Ropinirole (hydrochloride)]
31.3

Proceed to the following item.
Prompt: Data request, read-out difference in excitability, for N#Cc1ccc2[nH]cc(CCCCN3CCN(c4ccc5oc(C(N)=O)cc5c4)CC3)c2c1 [Vilazodone (hydrochloride)]
Response: 12.6

====

Field: difference in habituation to acoustic stimuli. Provide a value for each of the molecules that follow.
- Tested on: Danio rerio larvae (5 dpf)
- testSummary: difference in habituation to acoustic stimuli vs DMSO (percentage points); higher = more habituation than DMSO
- measurementContext: 10 µM; exposure time 6 h
Structures can show the parent of a compound that is named as a salt.
One number for each entry.

These recorded examples may help you get a feel for the data.
CCCCCN(C)CCC(O)(P(=O)(O)O)P(=O)(O)O [Ibandronate (sodium hydrate)]
7.06
C=C1/C(=C\C=C2/CCC[C@]3(C)[C@@H]([C@H](C)/C=C/[C@@H](O)C4CC4)CC[C@@H]23)C[C@@H](O)C[C@@H]1O [Calcipotriol (hydrate)]
-0.975

Hi there! I need difference in habituation to acoustic stimuli for each item below, if you can.
1. O=C(O)C[C@H](O)C[C@H](O)/C=C/c1c(C2CC2)nc2ccccc2c1-c1ccc(F)cc1 [Pitavastatin (calcium salt)]
2. CCCCc1oc2ccccc2c1C(=O)c1cc(I)c(OCCN(CC)CC)c(I)c1 [Amiodarone (hydrochloride)]
3. CC(CCc1ccc(O)cc1)NCCc1ccc(O)c(O)c1 (stereo not drawn) [Dobutamine (hydrochloride)]
4. COc1cc2nc(N3CCN(C(=O)C4CCCO4)CC3)nc(N)c2cc1OC (stereo not drawn) [Terazosin (hydrochloride)]
5. C#Cc1cccc(Nc2ncnc3cc(OCCOC)c(OCCOC)cc23)c1

Response:
[-3.94, -15.9, 12, 1.1, -0.321]

Prompt: What value of difference in habituation to acoustic stimuli has been recorded for this entry: `O=c1ccc2ccc(OCCCCN3CCN(c4cccc5sccc45)CC3)cc2[nH]1`
Response: -17.4

====

- Tested on: Danio rerio larvae (5 dpf)
- testSummary: difference in activity during first hour vs DMSO (percentage points); higher = more activity than DMSO
- measurementContext: 10 µM; exposure time 6 h
Counter-ions that a name gives are not always drawn.
valueKind: difference in activity during first hour
Answers are plain numbers.

O=C(O)CCc1nc(-c2ccccc2)c(-c2ccccc2)o1
3.28
Cc1[nH]c(=O)c(C#N)cc1-c1ccncc1
2.14
O=C(CCCN1CC=C(n2c(=O)[nH]c3ccccc32)CC1)c1ccc(F)cc1
12.3
CN1CCc2cccc3c2[C@H]1Cc1ccc(O)c(O)c1-3 [(-)-Apomorphine (hydrochloride hydrate)]
-20.1
CCCCNC(=O)NS(=O)(=O)c1ccc(C)cc1 [Tolbutamide]
15.1

Report difference in activity during first hour for each item below.
1. CCCc1nc(C)c2c(=O)nc(-c3cc(S(=O)(=O)N4CCN(CC)CC4)ccc3OCC)[nH]n12 [Vardenafil (hydrochloride hydrate)]
2. CC(=O)OC[C@H]1O[C@@H]([S-])[C@H](OC(C)=O)[C@@H](OC(C)=O)[C@@H]1OC(C)=O.CCP(CC)CC.[Au+]
3. CC(S)C(=O)NCC(=O)O (stereo not drawn)

Response:
0.203
11
3.62

====

- Tested on: Danio rerio larvae (5 dpf)
- testSummary: difference in habituation to acoustic stimuli vs DMSO (percentage points); higher = more habituation than DMSO
- measurementContext: 10 µM; exposure time 6 h
Structures can show the parent of a compound that is named as a salt.
valueKind: difference in habituation to acoustic stimuli
Give bare numbers.

Reference set (7 entries):
Cn1c(=O)cc(N2CCC[C@@H](N)C2)n(Cc2ccccc2C#N)c1=O [Alogliptin (benzoate salt)]
-0.862
OB1OCc2cc(F)ccc21
2.38
CNCC[C@H](Oc1cccc2ccccc12)c1cccs1 [(S)-Duloxetine (hydrochloride)]
-3.34
Cc1onc(-c2c(Cl)cccc2Cl)c1C(=O)N[C@@H]1C(=O)N2[C@@H]1SC(C)(C)[C@@H]2C(=O)O [Dicloxacillin (sodium salt hydrate)]
-4
OCCN1CCN(CCCN2c3ccccc3Sc3ccc(Cl)cc32)CC1
-10.2
COc1ccc2cc(C(C)C(=O)O)ccc2c1 (single isomer, unassigned; (+)) [(+)-Naproxen]
2.25
CC(=O)c1ccc(S(=O)(=O)NC(=O)NC2CCCCC2)cc1 [Acetohexamide]
-3.12

Consider the additional compound presented here.
Prompt: Item COc1c(C)c2c(c(O)c1C/C=C(\C)CCC(=O)OCCN1CCOCC1)C(=O)OC2 [Mycophenolate Mofetil] with Danio rerio larvae (5 dpf) - difference in habituation to acoustic stimuli?
Response: -2.74

====

- Test system: Danio rerio larvae (5 dpf)
- testSummary: difference in excitability vs DMSO (percentage points); higher = more excitable than DMSO
- measurementContext: 10 µM; exposure time 6 h
Where a name gives a salt, the structure may show the parent alone.
I'd be grateful if you could share measured difference in excitability for these entries.
Answers are plain numbers.

Here is how some compounds turned out for difference in excitability.
CN(Cc1ccc(C(C)(C)C)cc1)Cc1cccc2ccccc12 [Butenafine (hydrochloride)]
2.06
O=C(Nc1c(Cl)cncc1Cl)c1ccc(OC(F)F)c(OCC2CC2)c1 [Roflumilast]
18.7
CC(C)CN(C[C@@H](OP(=O)(O)O)[C@H](Cc1ccccc1)NC(=O)O[C@H]1CCOC1)S(=O)(=O)c1ccc(N)cc1 [Fosamprenavir (calcium salt)]
0.179
CN1CCN2c3ncccc3Cc3ccccc3C2C1 (configuration not stated) [Mirtazapine]
-3.43
CC[C@H](C)[C@@H]1NC(=O)[C@H](Cc2ccc(O)cc2)NC(=O)[C@@H](N)CSSC[C@@H](C(=O)N2CCC[C@H]2C(=O)N[C@@H](CC(C)C)C(=O)NCC(N)=O)NC(=O)[C@H](CC(N)=O)NC(=O)[C@H](CCC(N)=O)NC1=O [Oxytocin (acetate)]
-2.14
CO[C@H]1/C=C/O[C@@]2(C)Oc3c(C)c(O)c4c(O)c(c(/C=N/N5CCN(C)CC5)c(O)c4c3C2=O)NC(=O)/C(C)=C\C=C\[C@H](C)[C@H](O)[C@@H](C)[C@@H](O)[C@@H](C)[C@H](OC(C)=O)[C@@H]1C [Rifampicin]
2.43
O=c1[nH]cc(F)c(=O)[nH]1 [5-Fluorouracil]
4.49
NCC[C@H](O)C(=O)N[C@@H]1C[C@H](N)[C@@H](O[C@H]2O[C@H](CN)[C@@H](O)[C@H](O)[C@H]2O)[C@H](O)[C@H]1O[C@H]1O[C@H](CO)[C@@H](O)[C@H](N)[C@H]1O [Amikacin]
5.08

Parameter requested: difference in excitability. Apply to each item below.
1. CCS(=O)(=O)N1CC(CC#N)(n2cc(-c3ncnc4[nH]ccc34)cn2)C1 [Baricitinib]
2. CC[C@]1(O)C[C@H]2CN(CCc3c([nH]c4ccccc34)[C@@](C(=O)OC)(c3cc4c(cc3OC)N(C=O)[C@H]3[C@@](O)(C(=O)OC)[C@H](OC(C)=O)[C@]5(CC)C=CCN6CC[C@]43[C@@H]65)C2)C1 [Vincristine (sulfate)]
3. C=C(c1ccc(C(=O)O)cc1)c1cc2c(cc1C)C(C)(C)CCC2(C)C [Bexarotene]
4. CCCCCCCCc1ccc(CCC(N)(CO)CO)cc1 [Fingolimod]
5. CC(=O)OCC(=O)[C@@]1(O)CC[C@H]2[C@@H]3CCC4=CC(=O)CC[C@]4(C)[C@@]3(F)[C@@H](O)C[C@@]21C [Fludrocortisone Acetate]
6. N[C@@H](Cc1cc(I)c(Oc2cc(I)c(O)c(I)c2)c(I)c1)C(=O)O [L-Thyroxine]

Response:
1. 7.57
2. 3.18
3. 7.21
4. 5.87
5. -4.21
6. 12.1

Give measured difference in excitability for every item shown.
1. CCC1=C[C@@H]2CN(C1)Cc1c([nH]c3ccccc13)[C@@](C(=O)OC)(c1cc3c(cc1OC)N(C)[C@H]1[C@@](O)(C(=O)OC)[C@H](OC(C)=O)[C@]4(CC)C=CCN5CC[C@]31[C@@H]54)C2 [Vinorelbine (tartrate)]
2. O=C(O)c1cc(/N=N/c2ccc(O)c(C(=O)O)c2)ccc1O [Olsalazine (sodium salt)]
3. CC(=O)Oc1c(C)cc(OCC(O)CNC(C)C)c(C)c1C (configuration not stated) [Metipranolol (hydrochloride)]
4. COc1cc2c(cc1OC)CC(=O)N(CCCN(C)C[C@H]1Cc3cc(OC)c(OC)cc31)CC2 [Ivabradine (hydrochloride)]
5. O=C1[C@@H]2[C@H]3CC[C@H](C3)[C@@H]2C(=O)N1C[C@@H]1CCCC[C@H]1CN1CCN(c2nsc3ccccc23)CC1 [Lurasidone]
6. CN(C)CC[C@@H](c1ccc(Cl)cc1)c1ccccn1 [Dexchlorpheniramine (maleate)]
7. O=C1NC(c2ccccc2)(c2ccccc2)C(=O)N1COP(=O)(O)O [Fosphenytoin (sodium salt)]

Response:
11.6
-2.93
1.28
8.58
-9.91
5.44
1.33

State recorded difference in excitability for all listed compounds.
1. CC[N+](C)(C)c1cccc(O)c1 [Edrophonium (chloride)]
2. CCCCCCCC(=O)N[C@H](CN1CCCC1)[C@H](O)c1ccc2c(c1)OCCO2 [Eliglustat (hemitartrate)]
3. CCCNCC(O)COc1ccccc1C(=O)CCc1ccccc1 (configuration not stated) [Propafenone (hydrochloride)]
4. CCCCNc1cc(C(=O)O)cc(S(N)(=O)=O)c1Oc1ccccc1 [Bumetanide]

Response:
1: -0.775; 2: 10.1; 3: 14.4; 4: 5.57

Parameters: items (list). Returns: difference in excitability for each item.
1. CO/N=C1\CN(c2nc3c(cc2F)c(=O)c(C(=O)O)cn3C2CC2)CC1CN (configuration not stated) [Gemifloxacin (mesylate)]
2. COc1cc2nc(N3CCN(C(=O)C4COc5ccccc5O4)CC3)nc(N)c2cc1OC (configuration not stated) [Doxazosin (mesylate)]

Response:
[7.63, 25]
